Tested on: SH-SY5Y
ASSAY NAME: Neuroprotection against rotenone/oligomycin-A-indced human SH-SY5Y cell death assessed as protective effect at 1 uM after 2 hrs by MTT assay
Type: functional
ASSAY METRIC: Activity (%)
Form entry: value (%) — number only.

COc1nc2nc3c(c(N)c2c(-c2ccccc2)c1C#N)CCCC3 : 12
N#Cc1cc2c(N)c3c(nc2nc1Cl)CCN(Cc1ccccc1)C3 : 20

Item N#Cc1c(Cl)nc2nc3c(c(N)c2c1-c1ccccc1)CCCC3 with SH-SY5Y - Activity?
8

Query the reported Activity for SH-SY5Y; item: C#CCNc1nc2nc3c(c(N)c2cc1C#N)CCCC3
20

Test system SH-SY5Y; read-out Activity; what value for COc1nc2nc3c(c(N)c2cc1C#N)CN(Cc1ccccc1)CC3 ?
11

Report Activity for N#Cc1cc2c(N)c3c(nc2nc1Cl)CCCC3 tested on SH-SY5Y.
4

Lab note: need Activity for COc1nc2nc3c(c(N)c2cc1C#N)CCCC3 on SH-SY5Y, anyone have it?
23

Notebook entry, SH-SY5Y assay: Activity of N#Cc1cc2c(N)c3c(nc2nc1N1CCCC1)CCCC3 = ?
29

Lab request: please report Activity under test system SH-SY5Y for CN(C)c1nc2nc3c(c(N)c2c(-c2ccccc2)c1C#N)CCCC3
3

# returns recorded Activity (system: SH-SY5Y) for CC(=O)N[C@@H](CS)C(=O)O
33

Value wanted: Activity (SH-SY5Y) of entry CCOc1nc2nc3c(c(N)c2cc1C#N)CCCC3
29

Form entry - test system: SH-SY5Y; read-out: Activity; molecule: N#Cc1cc2c(N)c3c(nc2nc1N1CCCCC1)CCCC3
19

What Activity appears in the records for this molecule with SH-SY5Y? CN(C)c1nc2nc3c(c(N)c2cc1C#N)CCCC3
6

----------
Reported values of IC50 for individual entries
SYSTEM NAME: Acetylcholinesterase (Bos taurus)
Sequence (P23795 whole entry): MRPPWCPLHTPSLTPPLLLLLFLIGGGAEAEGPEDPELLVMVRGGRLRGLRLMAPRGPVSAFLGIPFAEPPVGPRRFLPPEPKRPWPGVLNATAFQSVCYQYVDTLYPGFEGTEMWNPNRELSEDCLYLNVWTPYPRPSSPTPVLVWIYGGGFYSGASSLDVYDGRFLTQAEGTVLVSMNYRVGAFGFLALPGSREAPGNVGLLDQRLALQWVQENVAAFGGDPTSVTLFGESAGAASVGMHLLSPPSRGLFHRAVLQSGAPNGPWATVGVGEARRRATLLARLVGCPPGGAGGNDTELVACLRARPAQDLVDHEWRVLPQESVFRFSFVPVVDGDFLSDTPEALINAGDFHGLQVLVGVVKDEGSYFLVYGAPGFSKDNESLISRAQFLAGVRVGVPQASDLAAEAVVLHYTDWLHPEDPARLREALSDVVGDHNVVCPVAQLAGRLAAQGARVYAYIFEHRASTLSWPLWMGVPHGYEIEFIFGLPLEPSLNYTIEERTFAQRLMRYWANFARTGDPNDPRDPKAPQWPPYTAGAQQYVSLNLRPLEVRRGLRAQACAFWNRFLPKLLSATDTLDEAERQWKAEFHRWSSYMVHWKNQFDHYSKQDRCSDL
Express your answer in nM, writing the number without its unit.

CN(C)c1nc2nc3c(c(N)c2c(-c2ccccc2)c1C#N)CCCC3 : 4400
N#Cc1cc2c(N)c3c(nc2nc1N1CCCC1)CCCC3 : 160
N#Cc1cc2c(N)c3c(nc2nc1N1CCCCC1)CCCC3 : 1000

I would be grateful if you could share the reported IC50 for CCOc1nc2nc3c(c(N)c2cc1C#N)CCCC3 .
1000

Could you tell me which IC50 is on file for COc1nc2nc3c(c(N)c2c(-c2ccccc2)c1C#N)CCCC3 ?
5000

Sample CN(C)c1nc2nc3c(c(N)c2cc1C#N)CCCC3 — what was its IC50?
100

I am curious: what IC50 value has been reported for COc1nc2nc3c(c(N)c2cc1C#N)CCCC3 ?
1600

Entry under review: COc1nc2nc3c(c(N)c2cc1C#N)CN(Cc1ccccc1)CC3 . Reported IC50?
5000

What value of measured IC50 is listed for C#CCNc1nc2nc3c(c(N)c2cc1C#N)CCCC3 ?
1530
